src = the METLIN SMRT retention time set (Domingo-Almenara et al. 2019)

Quick list: RP-LC retention time per entry.
PROCEDURE TEXT: gradient 5% acetonitrile 3 min, to 50% in 2 min, to 85% in 15 min, held 3 min, 100 µL/min
CONDITIONS USED: column: Zorbax Extend-C18 2.1 x 50 mm; eluents: water / acetonitrile, 0.1% formic acid

>  <STRUCTURE AS SMILES>
Cc1csc(-c2cc(S(=O)(=O)N3CCN(C)CC3)cn2CC(=O)N2CCCCC2)n1

>  <RP-LC retention time, s>
654

$$$$
>  <STRUCTURE AS SMILES>
O=C(NC1CCCC1)c1cc2n(n1)CCCN(Cc1ccc(Cl)cc1)C2=O

>  <RP-LC retention time, s>
890

$$$$
>  <STRUCTURE AS SMILES>
O=C(NCC(=O)N1CCCc2ccccc21)c1ccccc1F

>  <RP-LC retention time, s>
831

$$$$
>  <STRUCTURE AS SMILES>
CC(C)c1nncn1C1CCN(S(=O)(=O)Cc2ccc(Cl)cc2)CC1

>  <RP-LC retention time, s>
742

$$$$
>  <STRUCTURE AS SMILES>
CC(C)c1c(C(=O)O)nnn1Cc1ccc(Cl)cc1

>  <RP-LC retention time, s>
788

$$$$

====

Quick list: RP-LC retention time per entry.
PROCEDURE TEXT: gradient 5% acetonitrile 3 min, to 50% in 2 min, to 85% in 15 min, held 3 min, 100 µL/min
CONDITIONS USED: column: Zorbax Extend-C18 2.1 x 50 mm; eluents: water / acetonitrile, 0.1% formic acid

>  <COMPOUND>
COc1ccc(OC)c(S(=O)(=O)N2CCCC(C(=O)NCCO)C2)c1 (stereo not given)

>  <UNITS OF MEASURE>
s

>  <RP-LC retention time>
636

$$$$
>  <COMPOUND>
COc1cccc(NS(=O)(=O)c2ccc(-c3c(C)noc3C)cc2)c1

>  <UNITS OF MEASURE>
s

>  <RP-LC retention time>
884

$$$$
>  <COMPOUND>
Cc1c(Cl)cccc1NC(=O)NCC(c1cccnc1)c1cn(C)c2ccccc12 (stereo not given)

>  <UNITS OF MEASURE>
s

>  <RP-LC retention time>
773

$$$$
>  <COMPOUND>
CN1CCN(C(CNC(=O)C(=O)Nc2ccc(Cl)cc2)c2ccc3c(c2)OCO3)CC1 (stereo not given)

>  <UNITS OF MEASURE>
s

>  <RP-LC retention time>
716

$$$$
>  <COMPOUND>
COC(=O)c1cccc(NC(=O)CCc2cccc3[nH]ccc23)c1

>  <UNITS OF MEASURE>
s

>  <RP-LC retention time>
847

$$$$
>  <COMPOUND>
COc1cccc(CNC(=O)C2CCCN(c3nnc4ccc(Cl)cn34)C2)c1OC (stereo not given)

>  <UNITS OF MEASURE>
s

>  <RP-LC retention time>
754

$$$$
>  <COMPOUND>
COc1cc(-c2nc3ccc(Cl)cn3c2Nc2ccc3c(c2)OCCO3)ccc1O

>  <UNITS OF MEASURE>
s

>  <RP-LC retention time>
680

$$$$
>  <COMPOUND>
Cn1cc(-c2cc3n(n2)CCC(=O)N3CC(=O)NCc2ccco2)c2ccccc21

>  <UNITS OF MEASURE>
s

>  <RP-LC retention time>
756

$$$$
>  <COMPOUND>
CCc1noc(NC(C)=O)c1-c1ccc(C)c(S(=O)(=O)Nc2c(Cl)cc(OC)cc2OC)c1

>  <UNITS OF MEASURE>
s

>  <RP-LC retention time>
827

$$$$
>  <COMPOUND>
CN1C(=O)CN=C(c2ccccc2)c2cc([N+](=O)[O-])ccc21

>  <UNITS OF MEASURE>
s

>  <RP-LC retention time>
869

$$$$

====

Quick list: RP-LC retention time per entry.
PROCEDURE TEXT: gradient 5% acetonitrile 3 min, to 50% in 2 min, to 85% in 15 min, held 3 min, 100 µL/min
CONDITIONS USED: column: Zorbax Extend-C18 2.1 x 50 mm; eluents: water / acetonitrile, 0.1% formic acid

>  <COMPOUND>
Cn1cccc1C(=O)C(=O)NCCc1ccc(Cl)cc1

>  <RP-LC retention time>
939 s

$$$$
>  <COMPOUND>
CSc1nc(NCCN(C)C)c(C#N)c(-c2ccccc2)n1

>  <RP-LC retention time>
642 s

$$$$
>  <COMPOUND>
Cn1cc(-c2cc3n(n2)CCC(=O)N3CC(=O)NCCCN2CCCCCC2)c2ccccc21

>  <RP-LC retention time>
621 s

$$$$
>  <COMPOUND>
CCn1nc(C(=O)Nc2nnc(-c3cc4ccccc4o3)o2)cc1C

>  <RP-LC retention time>
770 s

$$$$
>  <COMPOUND>
CC(=O)Nc1ccc(-c2noc(C3CCN(C(=O)C4(c5ccccc5)CC4)CC3)n2)cc1

>  <RP-LC retention time>
837 s

$$$$
>  <COMPOUND>
CCCc1cc(C2CCCN2C(=O)NCCc2ccccc2)no1 (centres undefined)

>  <RP-LC retention time>
874 s

$$$$
>  <COMPOUND>
CC(=O)N1CCc2cc(N3CC(C(=O)Nc4ccc5c(c4)OCCO5)CC3=O)ccc21 (centres undefined)

>  <RP-LC retention time>
667 s

$$$$
>  <COMPOUND>
CCc1cccc(NC(=O)c2c(C)oc3nc(C)nc(N4CCCC4)c23)c1

>  <RP-LC retention time>
861 s

$$$$
>  <COMPOUND>
O=C(NCCN1CCCCC1)C1CCc2sc(C(=O)N3CCCCC3)cc2C1 (centres undefined)

>  <RP-LC retention time>
558 s

$$$$
>  <COMPOUND>
CCCS(=O)(=O)N1CCC(Cc2ccc(COc3ccncc3)cc2)CC1

>  <RP-LC retention time>
701 s

$$$$
>  <COMPOUND>
CCc1ccc(CNC(=O)C2CCCN(c3ccc(=O)n(-c4ccc(F)cc4)n3)C2)cc1 (centres undefined)

>  <RP-LC retention time>
910 s

$$$$
>  <COMPOUND>
CC(C)(C)c1ccc(C(=O)NC2(c3nc(-c4cccnc4)no3)CCCCC2)cc1

>  <RP-LC retention time>
1160 s

$$$$
>  <COMPOUND>
CC(C)CNC(=O)C1CCCN(c2nc3ccsc3c(=O)n2Cc2ccc(F)cc2)C1 (centres undefined)

>  <RP-LC retention time>
912 s

$$$$
>  <COMPOUND>
Cc1ccc(NS(=O)(=O)c2cn(CC(C)C)c3ncccc23)cc1

>  <RP-LC retention time>
986 s

$$$$

====

PROCEDURE TEXT: gradient 5% acetonitrile 3 min, to 50% in 2 min, to 85% in 15 min, held 3 min, 100 µL/min
CONDITIONS USED: column: Zorbax Extend-C18 2.1 x 50 mm; eluents: water / acetonitrile, 0.1% formic acid
Rule: yes for RP-LC retention time not less than 700 s, no for anything less.

>  <MOLECULE>
Cc1ccc(NC(=O)Cn2nc3c(N4CCCCCC4)nccn3c2=O)cc1F

>  <GROUP>
yes

$$$$
>  <MOLECULE>
Cc1ccc(NC(=O)N2CCC(c3nc(C(=O)N(C)C)c(C)o3)CC2)cc1C

>  <GROUP>
yes

$$$$
>  <MOLECULE>
Cc1c(NC(=O)c2cccs2)c(=O)n(-c2ccccc2)n1C

>  <GROUP>
no

$$$$
>  <MOLECULE>
CC(C)c1ccc(-c2noc(N3CCC(C(=O)NCCN4CCCC4)CC3)n2)cc1

>  <GROUP>
yes

$$$$
>  <MOLECULE>
CC1(C)CC(=O)c2cn(-c3ccccc3)c(=O)c(C(=O)NCC3CCCO3)c2C1 (stereo not drawn)

>  <GROUP>
yes

$$$$
>  <MOLECULE>
CC1CCCCN1S(=O)(=O)c1ccc(Cl)c(C(F)(F)F)c1 (stereo not drawn)

>  <GROUP>
yes

$$$$
>  <MOLECULE>
CN(Cc1cc(Cl)ccc1F)C1CCc2nnc(C3CCOCC3)n2CC1 (stereo not drawn)

>  <GROUP>
no

$$$$
>  <MOLECULE>
CCN1CCN(c2cc(C)c3cc(NC(=S)N4CCN(c5ccccc5F)CC4)ccc3n2)CC1

>  <GROUP>
no

$$$$
>  <MOLECULE>
O=[N+]([O-])c1ccc(CSc2nnc(-c3cccc(S(=O)(=O)N4CCCC4)c3)o2)cc1

>  <GROUP>
yes

$$$$
>  <MOLECULE>
CCOc1ccc(NC(=O)c2cnc3c(c2)c(=O)n(C)c(=O)n3-c2ccc(F)cc2)cc1

>  <GROUP>
yes

$$$$
>  <MOLECULE>
Cc1nc2cc3c(cc2n1CC(=O)NCc1ccc(Cl)cc1)OCCO3

>  <GROUP>
no

$$$$
>  <MOLECULE>
Cc1cccc2c(=O)n(C3CCN(S(=O)(=O)c4ccccc4)CC3)cnc12

>  <GROUP>
yes

$$$$
